Assay: Oral bioavailability in Sprague-Dawley rat at 2 mg/kg by HPLC analysis
Format: ADME, organism-based
Settings: in vivo
Property measured: bioavailability (%)
# output: bare number, implied unit %

Request: Looking for the measured bioavailability of CS(=O)(=O)NC[C@H]1CC[C@H](Nc2nc3c(s2)CCSc2ccccc2-3)CC1 , can you help?
Response: 92

----------
Provide the reported pIC50 of each item.
Molecular target: UniProt Q15761
Sequence (Q15761 whole entry): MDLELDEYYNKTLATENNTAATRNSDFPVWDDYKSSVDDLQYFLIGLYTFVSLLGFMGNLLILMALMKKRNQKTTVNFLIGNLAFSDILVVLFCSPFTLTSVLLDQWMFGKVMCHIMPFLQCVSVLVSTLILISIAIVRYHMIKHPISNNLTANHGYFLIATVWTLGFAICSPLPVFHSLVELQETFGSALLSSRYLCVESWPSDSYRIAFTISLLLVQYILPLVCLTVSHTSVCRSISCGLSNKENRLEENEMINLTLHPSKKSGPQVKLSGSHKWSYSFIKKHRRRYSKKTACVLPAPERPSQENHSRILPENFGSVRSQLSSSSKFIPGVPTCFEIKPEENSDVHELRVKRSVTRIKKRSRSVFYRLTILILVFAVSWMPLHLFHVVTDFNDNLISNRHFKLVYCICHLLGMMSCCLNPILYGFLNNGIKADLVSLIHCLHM
Assay: Antagonist activity at human NPY5 receptor assessed as calcium mobilization by FLIPR assay
Scale: negative log10 of molar concentration, which is what pIC50 denotes.

Request: Can you look up the measured pIC50 of CC(C)S(=O)(=O)NCCCCCNc1nc2c(s1)CCCc1ccc(F)cc1-2 for me?
Response: 7.01

Request: Would you mind telling me what pIC50 value was observed for CS(=O)(=O)NCCCCCNc1nc2c(s1)CCCc1ccc(F)cc1-2 ?
Response: 9.05

Request: pIC50 for CS(=O)(=O)NCCCCCNc1nc2c(s1)CCSc1ccccc1-2 ?
Response: 8.30

Request: What value of measured pIC50 is listed for O=S(=O)(NC[C@H]1CC[C@H](Nc2nc3c(s2)CCSc2ccccc2-3)CC1)c1cccs1 ?
Response: 8.42

Request: Would you kindly share the measured pIC50 for CCS(=O)(=O)NC[C@H]1CC[C@H](Nc2nc3c(s2)CCSc2ccccc2-3)CC1 ?
Response: 7.51

Request: Item under review: O=S(=O)(CC(F)(F)F)NCCCCNc1nc2c(s1)CCCc1ccc(F)cc1-2 . Reported pIC50?
Response: 8.72

----------
Assay: Drug uptake in brain of cPP-induced feeding rat model at 3 mg/kg, po after 1 hr
Format: ADME, organism-based
Design: dose 3 mg/kg, route oral
Settings: read-out: Drug uptake
Property measured: concentration at 1 h (ng/g)
Only the number, expressed in ng/g, is required.

Request: For the compound CS(=O)(=O)NC[C@H]1CC[C@H](Nc2nc3c(s2)CCSc2ccccc2-3)CC1 , what concentration at 1 h is on record?
Response: 54

----------
Experiment: Drug uptake in brain of cPP-induced feeding rat model at 3 mg/kg, po after 2 hrs
Type: ADME, organism-based
Parameters: dose 3 mg/kg, route oral
Settings: read-out: Drug uptake
Property measured: concentration at 2 h (ng/g)
Give the number; ng/g is assumed, so skip it.

Request: Which measured concentration at 2 h value corresponds to CS(=O)(=O)NC[C@H]1CC[C@H](Nc2nc3c(s2)CCSc2ccccc2-3)CC1 ?
Response: 87

----------
Experiment: Plasma clearance in mouse at 1 mg/kg, iv and 2 mg/kg, po by HPLC analysis
Type: ADME, organism-based
Property measured: clearance
Entry format: amount then unit.

Request: Sample CS(=O)(=O)NC[C@H]1CC[C@H](Nc2nc3c(s2)CCSc2ccccc2-3)CC1 — what was its clearance?
Response: 5 mL/min/kg

----------
Target: 5-hydroxytryptamine receptor 2B (Homo sapiens, UniProt P41595)
Sequence (P41595 whole entry): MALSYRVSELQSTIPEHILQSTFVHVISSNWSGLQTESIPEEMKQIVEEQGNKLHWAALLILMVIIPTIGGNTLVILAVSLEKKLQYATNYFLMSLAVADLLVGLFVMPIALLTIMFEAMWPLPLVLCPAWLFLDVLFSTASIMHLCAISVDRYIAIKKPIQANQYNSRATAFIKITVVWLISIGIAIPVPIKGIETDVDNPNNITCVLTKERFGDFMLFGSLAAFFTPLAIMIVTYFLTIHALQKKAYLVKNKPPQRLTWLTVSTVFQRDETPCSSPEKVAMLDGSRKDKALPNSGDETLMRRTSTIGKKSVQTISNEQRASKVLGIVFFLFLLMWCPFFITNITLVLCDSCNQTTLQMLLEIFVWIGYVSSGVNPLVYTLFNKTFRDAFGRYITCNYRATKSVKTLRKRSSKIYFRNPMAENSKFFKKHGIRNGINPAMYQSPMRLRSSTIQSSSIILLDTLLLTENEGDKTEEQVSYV
Property measured: Ki (nM)
A number alone suffices; assume nM.

Request: Requested read-out: Ki. Entry: CS(=O)(=O)NC[C@H]1CC[C@H](Nc2nc3c(s2)CCSc2ccccc2-3)CC1
Response: 245

----------
Test: Plasma concentration in cPP-induced feeding rat model at 3 mg/kg, po after 2 hrs
Assay type: ADME, organism-based
Parameters: dose 3 mg/kg, route oral
Property measured: concentration at 2 h (ng/mL)
State just the number; it will be interpreted in ng/mL.

Request: Look up concentration at 2 h: CS(=O)(=O)NC[C@H]1CC[C@H](Nc2nc3c(s2)CCSc2ccccc2-3)CC1
Response: 87

----------
Experiment: Tmax in mouse at 1 mg/kg, iv and 2 mg/kg, po by HPLC analysis
Type: ADME, organism-based
Conditions: in vivo
Property measured: Tmax (h)
Kindly provide the numeric value in h only, without the unit symbol.

Request: What value of Tmax has been reported for the following molecule? CS(=O)(=O)NC[C@H]1CC[C@H](Nc2nc3c(s2)CCSc2ccccc2-3)CC1
Response: 1.3

----------
Test: Drug uptake in brain of cPP-induced feeding rat model at 10 mg/kg, po after 2 hrs
Assay type: ADME, organism-based
Design: dose 10 mg/kg, route oral
Conditions: read-out: Drug uptake
Property measured: concentration at 2 h (ng/g)
Give the value, in units of ng/g, as a plain number.

Request: Can you share its concentration at 2 h? I mean this molecule: CS(=O)(=O)NC[C@H]1CC[C@H](Nc2nc3c(s2)CCSc2ccccc2-3)CC1
Response: 244

----------
Test: Plasma concentration in cPP-induced feeding rat model at 10 mg/kg, po after 4 hrs
Type: ADME, organism-based
Design: dose 10 mg/kg, route oral
Property measured: concentration at 4 h (ng/mL)
Field: numeric (ng/mL). Do not append units.

Request: Tell me the measured concentration at 4 h of CS(=O)(=O)NC[C@H]1CC[C@H](Nc2nc3c(s2)CCSc2ccccc2-3)CC1 , please.
Response: 141

----------
Assay: Plasma concentration in cPP-induced feeding rat model at 3 mg/kg, po after 1 hr
Assay type: ADME, organism-based
Parameters: dose 3 mg/kg, route oral
Property measured: concentration at 1 h (ng/mL)
Give a bare numeral; the unit ng/mL is implied.

Request: # lookup: concentration at 1 h of CS(=O)(=O)NC[C@H]1CC[C@H](Nc2nc3c(s2)CCSc2ccccc2-3)CC1
Response: 54

----------
Assay: Plasma concentration in cPP-induced feeding rat model at 30 mg/kg, po after 4 hrs
Type: ADME, organism-based
Set-up: dose 30 mg/kg, route oral
Property measured: concentration at 4 h (ng/mL)
Please give a number only; it is taken to be in ng/mL.

Request: Entry CS(=O)(=O)NC[C@H]1CC[C@H](Nc2nc3c(s2)CCSc2ccccc2-3)CC1 : reported concentration at 4 h = ?
Response: 519

----------
Experiment: Drug uptake in brain of cPP-induced feeding rat model at 3 mg/kg, po after 6 hrs
Type: ADME, organism-based
Design: dose 3 mg/kg, route oral
Settings: read-out: Drug uptake
Property measured: concentration at 6 h (ng/g)
Reply numerically in ng/g, unit not repeated.

Request: Could you share which concentration at 6 h value was measured for CS(=O)(=O)NC[C@H]1CC[C@H](Nc2nc3c(s2)CCSc2ccccc2-3)CC1 ?
Response: 30

----------
Experiment: Drug uptake in rat brain at 10 mg/kg, po after 4 hrs
Assay type: ADME, organism-based
Parameters: dose 10 mg/kg, route oral
Conditions: read-out: Drug uptake
Property measured: concentration at 4 h (ng/g)
Your answer should be a plain number; it is taken to be in ng/g.

Request: Recorded concentration at 4 h for CS(=O)(=O)NC[C@H]1CC[C@H](Nc2nc3c(s2)CCSc2ccccc2-3)CC1 , please?
Response: 460

Request: Given the entry CS(=O)(=O)NCCCCCNc1nc2c(s1)CCSc1ccc(F)cc1-2 , report its measured concentration at 4 h.
Response: 140

Request: Need concentration at 4 h of O=S(=O)(NC[C@H]1CC[C@H](Nc2nc3c(s2)CCSc2ccccc2-3)CC1)c1cccs1 , thanks.
Response: 10

----------
Test: Plasma clearance in Sprague-Dawley rat at 1 mg/kg, iv and 2 mg/kg, po by HPLC analysis
Format: ADME, organism-based
Property measured: clearance (mL/min/kg)
Report only the number, with the unit mL/min/kg understood.

Request: Which clearance is reported for this molecule? CS(=O)(=O)NC[C@H]1CC[C@H](Nc2nc3c(s2)CCSc2ccccc2-3)CC1
Response: 18.3

----------
Molecular target: UniProt Q15761
Assay: Binding affinity to human NPY5 receptor
# class assignment by measured Ki: class A (below 2 nM), class B (2 nM to below 7 nM), class C (7 nM or more)

Request: Form: Item = O=S(=O)(CC(F)(F)F)NCCCCNc1nc2c(s1)CCCc1ccc(F)cc1-2 ; Class = ?
Response: class B

Request: Textbook exercise: identify the category of the compound given here, CS(=O)(=O)NCCCCCNc1nc2c(s1)CCSc1ccccc1-2 , according to its measured value.
Response: class C

Request: Lab note: sort O=S(=O)(CC(F)(F)F)NCCCCCNc1nc2c(s1)CCCc1ccc(F)cc1-2 into the matching Ki band.
Response: class C

Request: Quick check: band for CCS(=O)(=O)NCCCCCNc1nc2c(s1)CCCc1ccc(F)cc1-2
Response: class A

Request: // return the class label for Cn1cnc(S(=O)(=O)NC[C@H]2CC[C@H](Nc3nc4c(s3)CCSc3ccccc3-4)CC2)c1
Response: class C

Request: Any idea which band CS(=O)(=O)NC[C@H]1CC[C@H](Nc2nc3c(s2)CCCc2ccc(F)cc2-3)CC1 is in?
Response: class A

Request: Quick check: band for COc1ccc(C)cc1S(=O)(=O)NC[C@H]1CC[C@H](Nc2nc3c(s2)CCSc2ccccc2-3)CC1
Response: class B

Request: Hi there! Could you help me figure out the category for CC(C)S(=O)(=O)NCCOCCNc1nc2c(s1)CCCc1ccc(F)cc1-2 please?
Response: class B

Request: Hi there! Could you help me figure out the category for COc1ccc2c(c1)OCCc1sc(NC[C@H]3CC[C@H](NS(C)(=O)=O)CC3)nc1-2 please?
Response: class B

Request: Category of CS(=O)(=O)NCCCCCNc1nc2c(s1)CCSc1ccc(F)cc1-2 , please.
Response: class A

Data provenance is ChEMBL document CHEMBL1833793.
